assayRemarks: Antioxidant activity of the compound assessed as DPPH radical scavenging activity after 5 mins by spectrophotometric method
Format: functional
Please use T for IC50 under 60 µM and F for everything else, ties included.

The following compounds have reported results that may help.
smilesStr: CCOc1cc(/C=C/C(=O)CC(=O)/C=C/c2ccc(O)c(OCC)c2)ccc1O
qualitativeLabel: T
--
smilesStr: CCOc1cc(/C=C/C(=O)C(=Cc2ccc(O)cc2)C(=O)/C=C/c2ccc(O)c(OCC)c2)ccc1O
qualitativeLabel: T
--
smilesStr: COc1cc(/C=C/C(=O)CC(=O)/C=C/c2ccc(O)c(OC)c2)ccc1O
qualitativeLabel: T
--
smilesStr: COc1cc(C=C(C(=O)/C=C/c2ccc(O)c(OC)c2)C(=O)/C=C/c2ccc(O)c(OC)c2)ccc1O
qualitativeLabel: F
--
smilesStr: COc1cc(/C=C/C(=O)C(=Cc2ccccc2)C(=O)/C=C/c2ccc(O)c(OC)c2)ccc1O
qualitativeLabel: F

Query compound follows.
Identify whether the compound COc1cc(/C=C/C(=O)C(=Cc2ccc(O)cc2)C(=O)/C=C/c2ccc(O)c(OC)c2)ccc1O records IC50 below 60 µM. T

Every entry's value here was drawn from ChEMBL document CHEMBL4020732.
